# measurement target: Potassium voltage-gated channel subfamily A member 3 (Homo sapiens)
# run description: Inhibition of human Kv1.3 expressed in Xenopus laevis oocytes at 1 uM at -90 mV holding potential by two-electrode voltage clamp assay relative to control
Activity calls are given as the source filed them. The calls are words filed in the database; no cut-off is given here.
recorded endpoint: inhibition

// below: answered compounds
> print(dat)
                                    compound                        measurement.target    result
 1  Nc1nc(CCCNC(=O)C2Cc3ccccc3N2)c[nH]1 (configuration not stated)  Potassium voltage-gated channel subfamily A member 3 (Homo sapiens)  inactive
 2       Nc1ncc(/C=C/CNC(=O)c2ccc[nH]2)[nH]1  Potassium voltage-gated channel subfamily A member 3 (Homo sapiens)  inactive
 3  Nc1ncc(/C=C/CNC(=O)c2cc(Br)c(Br)[nH]2)[nH]1  Potassium voltage-gated channel subfamily A member 3 (Homo sapiens)       58%
 4    Nc1nc(CCCNC(=O)c2cc3ccccc3[nH]2)c[nH]1  Potassium voltage-gated channel subfamily A member 3 (Homo sapiens)  inactive
 5  Nc1nc(CCCNC(=O)c2cc(Br)c(Br)[nH]2)c[nH]1  Potassium voltage-gated channel subfamily A member 3 (Homo sapiens)  inactive
 6  Nc1nc(/C=C/CNC(=O)c2cc3cc(Cl)ccc3[nH]2)c[nH]1  Potassium voltage-gated channel subfamily A member 3 (Homo sapiens)  inactive
 7  Nc1nc(/C=C/CNC(=O)c2cc3cc(F)ccc3[nH]2)c[nH]1  Potassium voltage-gated channel subfamily A member 3 (Homo sapiens)       28%
 8  Cc1[nH]c(C(=O)NC/C=C/c2c[nH]c(N)n2)cc1Cl  Potassium voltage-gated channel subfamily A member 3 (Homo sapiens)  inactive
 9  Nc1nc(/C=C/CNC(=O)c2cc(Cl)c(Cl)[nH]2)c[nH]1  Potassium voltage-gated channel subfamily A member 3 (Homo sapiens)  inactive
10   Nc1nc(/C=C/CNC(=O)c2cc(Br)c[nH]2)c[nH]1  Potassium voltage-gated channel subfamily A member 3 (Homo sapiens)       32%

What inhibition appears in the records for this compound with Potassium voltage-gated channel subfamily A member 3 (Homo sapiens)? Nc1nc(/C=C/CNC(=O)c2cccnc2)c[nH]1 inactive

Same again, this time with Cc1[nH]c(C(=O)NC/C=C/c2c[nH]c(N)n2)c(Br)c1Br inactive

Same again, this time with COc1ccc2[nH]c(C(=O)NC/C=C/c3c[nH]c(N)n3)cc2c1 inactive

Same again, this time with Nc1nc(/C=C/CNC(=O)c2cc3ccccc3[nH]2)c[nH]1 inactive

Same again, this time with Cc1[nH]c(C(=O)NC/C=C/c2c[nH]c(N)n2)cc1Br inactive

Same again, this time with Nc1nc(/C=C/CNC(=O)C2CCNCC2)c[nH]1 28%

Same again, this time with CC(C)(C)OC(=O)N1CCC(C(=O)NC/C=C/c2c[nH]c(N)n2)CC1 inactive

Values were extracted from ChEMBL document CHEMBL4190320.
